target: RSK2 (Homo sapiens, UniProt P51812)
Sequence (P51812 whole entry, species assumed): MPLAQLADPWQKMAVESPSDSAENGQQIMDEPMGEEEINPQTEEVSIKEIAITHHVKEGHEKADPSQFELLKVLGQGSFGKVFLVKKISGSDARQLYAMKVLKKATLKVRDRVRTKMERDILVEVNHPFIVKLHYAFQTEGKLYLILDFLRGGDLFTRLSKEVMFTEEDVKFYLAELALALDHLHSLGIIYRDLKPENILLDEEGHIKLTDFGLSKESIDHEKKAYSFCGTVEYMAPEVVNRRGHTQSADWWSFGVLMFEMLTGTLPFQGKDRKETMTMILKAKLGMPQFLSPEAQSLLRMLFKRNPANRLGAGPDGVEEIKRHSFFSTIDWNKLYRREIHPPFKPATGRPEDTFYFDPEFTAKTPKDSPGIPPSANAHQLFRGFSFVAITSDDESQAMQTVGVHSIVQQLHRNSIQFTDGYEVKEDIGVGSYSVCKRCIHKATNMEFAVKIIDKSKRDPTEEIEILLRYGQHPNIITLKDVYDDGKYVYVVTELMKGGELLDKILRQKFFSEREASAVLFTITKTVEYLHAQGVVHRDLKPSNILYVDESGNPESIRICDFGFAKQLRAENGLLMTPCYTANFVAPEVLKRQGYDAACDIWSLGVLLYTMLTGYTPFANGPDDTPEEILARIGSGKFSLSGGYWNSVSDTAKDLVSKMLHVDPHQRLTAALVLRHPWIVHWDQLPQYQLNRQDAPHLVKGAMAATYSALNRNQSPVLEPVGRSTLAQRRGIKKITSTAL
experimental.endpoint: IC50

Return value of IC50 for input CCN1C(=O)N(c2c(F)c(OC)cc(OC)c2F)Cc2cnc3[nH]c(CN4CCOCC4)cc3c21 [INCB054828, pemigatinib] , no commentary.
> 10 µM

###

assay: Pharmacokinetic analyses; type: in vivo, Sprague Dawley rats; conditions: Sprague Dawley, plasma; male rat, intravenous 1 mg/kg; read-out: Vss
experimental.endpoint: Vd (L/kg)
Give bare numbers, in L/kg.

Return value of Vd for input CCN1C(=O)N(c2c(F)c(OC)cc(OC)c2F)Cc2cnc3[nH]c(CN4CCOCC4)cc3c21 , no commentary.
1.85
